test: NCI Yeast Anticancer Drug Screen. Data for the sgs1 mgt1 strain (AID 161);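 also: 0% = growth of cultures given vehicle only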; conditions: S. cerevisiae sgs1 mgt1 strain, at 50.0 µM
This is part of a sample that, as a whole, favours compounds with a hit. Of some 79,000 tested, about 15% had one in any assay. The source made the active and inactive calls. Rule as the data show it: active = growth inhibition above about 70%; inactive = the rest.
Classes used: true (active), false (inactive)

>>> df
                                    compound  class
 0          CN(c1ccccc1)c1nc(=[N+]2CCCC2)ss1  false
 1  COc1cc2c(cc1OC)-c1c3c(cc4c1[C@@H](C2)N(C)CC4)OCO3  false
 2                            CCN(CC)C(=S)Cl  false
 3                             Cc1cccnc1NN=O  false
 4  O=[C-]CC(=O)c1ccccc1.O=[C-]CC(=O)c1ccccc1.[Fe+2]  false
 5  ClC1=C(Cl)C2(Cl)C3C4CC(C5OC45)C3C1(Cl)C2(Cl)Cl (configuration not stated)  false
 6                  CCCCCCCCCSCP(=O)(OCC)OCC   true
 7  C[Si](C)(C)CS(=O)[O-].[C-]#[O+].[C-]#[O+].[Fe+6].[c-]1[c-][c-][cH-][c-]1  false
 8                  COc1cc2c(cc1O)CCN[C@H]2C  false
 9                          COC(=O)c1ccccc1N  false
10  CC(=O)[O][Sn]([CH2]C1CCCC1)([CH2]C1CCCC1)[CH2]C1CCCC1   true
11                      CC(C)(N)Cc1ccc(N)cc1  false

----------
test: NCI Yeast Anticancer Drug Screen. Data for the cln2 rad14 strain (AID 165);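 also: 0% = growth equal to vehicle treated cultures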; settings: S. cerevisiae cln2 rad14 strain, at 50.0 µM, active compounds read high
Compounds without any hit were thinned out: in the full panel of roughly 79,000, 15% have a hit. Active and inactive are the calls of the source. Rule as the data show it: active = growth inhibition above about 70%; inactive = the rest.
Readout Kind: growth inhibition

In [3]: df
Out[3]:
                                    molecule      readout_value
 0  O=C(NC(Cl)=C(Cl)Cl)P(=O)(c1ccccc1)c1ccccc1   17.2% (inactive)
 1                        O=C(NC1CC1)C(Cl)Cl     11% (inactive)
 2  CCC[N+]12C(O)C(CC)C3CC1C1N(C)c4ccc(Br)cc4C14CC2C3C4O (stereo unspecified)  -12.3% (inactive)
 3                  CC[As](=O)(O)CCCc1ccccc1    3.1% (inactive)
 4  CCC[P+](CCC)(CCC)CCCCCCCCCC[P+](CCC)(CCC)CCC  -21.2% (inactive)
 5  CO[C@H](C)[C@](O)(C(=O)OCC1=CCN2CC[C@@H](O)[C@H]12)C(C)C   1.25% (inactive)
 6   C1=C(c2ccccc2)CCN(C2(c3ccccc3)CCCCC2)C1  -33.5% (inactive)
 7  C/C=C/C(C)C1(CCC)C(=O)NC(=O)NC1=O (stereo unspecified)  -37.2% (inactive)
 8  O=P(Oc1ccccc1)(Oc1ccccc1)Oc1c(Cl)c(Cl)c(O)c(Cl)c1Cl   19.1% (inactive)
 9  [CH3][Sn]([CH3])([O]S(=O)c1ccc(Cl)cc1)[O]S(=O)c1ccc(Cl)cc1 (stereo unspecified)   14.7% (inactive)
10  O=S(=O)(Nc1ccc(-c2ccccc2)cc1)c1ccc([As](=O)(O)O)cc1  -1.65% (inactive)
